- test.system: 5-HT4 receptor (Cavia porcellus)
- Construct: crude synapse membrane sample was prepared from guinea pig striatum; from tissue; host or cells: guinea pig striatum, crude synaptic membranes
- Sequence (O70528 whole entry): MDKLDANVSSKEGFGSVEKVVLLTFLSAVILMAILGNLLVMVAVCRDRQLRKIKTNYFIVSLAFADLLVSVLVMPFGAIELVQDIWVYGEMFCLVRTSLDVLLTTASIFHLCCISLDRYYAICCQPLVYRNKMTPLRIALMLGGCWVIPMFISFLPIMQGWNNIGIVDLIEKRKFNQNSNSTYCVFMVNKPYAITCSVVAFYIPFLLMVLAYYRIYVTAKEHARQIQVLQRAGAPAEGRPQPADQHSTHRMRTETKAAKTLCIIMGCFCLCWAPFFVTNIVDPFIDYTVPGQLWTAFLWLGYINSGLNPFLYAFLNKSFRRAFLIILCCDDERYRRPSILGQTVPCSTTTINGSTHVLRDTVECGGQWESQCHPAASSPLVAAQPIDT
- assay.procedure: biochemical
- Type: binding, guinea pig
- reported.conditions: [3H]GR113808 0.1 nM, guinea pig striatum membranes, 37°C, 30 min; IC50 converted to Ki; read-out: Affinity for receptor (Ki value, nM) 5-HT4
Simple rule here: Ki less than 2 nM is TRUE, otherwise FALSE.

[Q] In the record for `COc1cc(N)c(Cl)cc1C(=O)NCC1CCN(CCCCCNCC2CCCCC2)CC1` , is Ki less than 2 nM?
[A] TRUE

[Q] Same lookup for `COc1cc(N)c(Cl)cc1C(=O)NCC1CCN(CCCCCC(=O)c2cn(C)c3ccccc23)CC1` , please.
[A] TRUE

[Q] Param item: `CCN(CCCCCCN1CCC(CNC(=O)c2cc(Cl)c(N)cc2OC)CC1)Cc1ccc([N+](=O)[O-])cc1`
[A] FALSE

[Q] Please do the same for `COc1cc(N)c(Cl)cc1C(=O)NCC1CCN(CCCCCC(=O)c2ccccc2)CC1` as well.
[A] FALSE

[Q] Repeat for the following compound: `CCN(CCCCN1CCC(CNC(=O)c2cc(Cl)c(N)cc2OC)CC1)Cc1ccc(Cl)c(Cl)c1`
[A] TRUE
